Hey, just so you know, these numbers are from ChEMBL document CHEMBL1122015.

- Organism: Rattus norvegicus
- experiment: Inhibition of the uptake of [3H]DA by corpus striatum synaptosomes of reserpine-pretreated rat
- Type: functional

{"compound": "Oc1ccc([C@H]2CC3CC[C@H]2NC3)cc1O (relative stereo)", "unit.text": "µM", "IC50": 32}
{"compound": "Oc1ccc([C@H]2CC3CC[C@H]2NC3)cc1O (stereo in doubt; 1)", "unit.text": "µM", "IC50": 110}
